Where do these numbers come from? They come from ChEMBL document CHEMBL1944503.

Tested on: HeLa
protocol.summary: Cytotoxicity against human HeLa cells after 48 hrs by CCK-8 assay
Format: functional, cell-based
IC50 under 800 nM gets 1, anything at or over 800 nM gets -1.

// query Does this molecule meet the criterion IC50 < 800 nM? COc1cc([C@@H]2c3cc4c(cc3C[C@H]3COC(=O)[C@@H]32)OCO4)cc(OC)c1OC(=O)[C@H](Cc1ccccc1)NC(=O)Cn1cc(F)c(=O)[nH]c1=O
// result -1

// query Does this molecule meet the criterion IC50 < 800 nM? COc1cc([C@@H]2c3cc4c(cc3C[C@H]3COC(=O)[C@@H]32)OCO4)cc(OC)c1O
// result -1

// query Does this molecule meet the criterion IC50 < 800 nM? COc1cc([C@@H]2c3cc4c(cc3C[C@H]3COC(=O)[C@@H]32)OCO4)cc(OC)c1OC(=O)[C@@H](CCSC)NC(=O)Cn1cc(F)c(=O)[nH]c1=O
// result -1

// query Does this molecule meet the criterion IC50 < 800 nM? COc1cc([C@@H]2c3cc4c(cc3C[C@H]3COC(=O)[C@@H]32)OCO4)cc(OC)c1OC(=O)Cn1cc(F)c(=O)[nH]c1=O
// result 1

// query Does this molecule meet the criterion IC50 < 800 nM? COc1cc([C@@H]2c3cc4c(cc3C[C@H]3COC(=O)[C@@H]32)OCO4)cc(OC)c1OC(=O)[C@H](CC(C)C)NC(=O)Cn1cc(F)c(=O)[nH]c1=O
// result 1

// query Does this molecule meet the criterion IC50 < 800 nM? COc1cc([C@@H]2c3cc4c(cc3C[C@H]3COC(=O)[C@@H]32)OCO4)cc(OC)c1OC
// result -1

// query Does this molecule meet the criterion IC50 < 800 nM? O=c1[nH]cc(F)c(=O)[nH]1
// result -1
